Molecular target: T1, mouse vascular endothelial growth factor receptor-2 Fc chimera (Flk-1-Fc) (mouse, UniProt P35918 20-762)
T1 construct: Purchased from R&D Systems; also called mouse VEGF-R2; not shown: Fc part of the purchased chimera
T1 sequence (P35918 20-762, change not shown): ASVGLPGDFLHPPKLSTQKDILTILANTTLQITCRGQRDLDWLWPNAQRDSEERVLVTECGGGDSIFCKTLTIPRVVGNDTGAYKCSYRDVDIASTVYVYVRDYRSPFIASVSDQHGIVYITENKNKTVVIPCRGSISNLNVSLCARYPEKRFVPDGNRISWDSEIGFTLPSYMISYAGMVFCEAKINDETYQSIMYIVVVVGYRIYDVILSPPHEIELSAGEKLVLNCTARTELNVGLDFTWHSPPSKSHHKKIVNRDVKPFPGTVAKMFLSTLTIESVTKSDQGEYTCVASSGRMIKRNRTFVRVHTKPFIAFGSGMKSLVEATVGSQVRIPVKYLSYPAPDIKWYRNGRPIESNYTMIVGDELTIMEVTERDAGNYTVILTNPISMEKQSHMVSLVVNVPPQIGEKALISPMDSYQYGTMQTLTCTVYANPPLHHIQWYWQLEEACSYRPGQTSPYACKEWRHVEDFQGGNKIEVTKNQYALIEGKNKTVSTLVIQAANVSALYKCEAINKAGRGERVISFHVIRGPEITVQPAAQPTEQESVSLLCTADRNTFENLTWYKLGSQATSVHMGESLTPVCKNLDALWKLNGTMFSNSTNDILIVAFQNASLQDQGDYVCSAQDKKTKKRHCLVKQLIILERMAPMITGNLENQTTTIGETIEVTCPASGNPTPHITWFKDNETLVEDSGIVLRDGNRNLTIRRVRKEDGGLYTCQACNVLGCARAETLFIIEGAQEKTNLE
Test: binding to 1 nM Flk-1-Fc, % of input; radioactive equilibrium binding (assay not given)
Result type: Binding to 1 nM FLK, % (%)
Note: unit % is implicit; provide only the numeric part.

Lookup: Entry E9 (designed binder, Del 1-8 10Fn3 clone; Flag tag of the radioactive-assay form not included) EVVAATPTSLLISWRHPHFPTRYYRITYGETGGNSPVQEFTVPLQPPTATISGLKPGVDYTITGYAVTEERNGRTLRTPISINYRT has what Binding to 1 nM FLK, %?
Found: 34

Lookup: // repeat for E14 (designed binder, Del 1-8 10Fn3 clone; Flag tag of the radioactive-assay form not included) EVVAATPTSLLISWRHPHFPTRYYRITYGETGGNSPVQEFTVPLQPPTATISGLKPGVDYTITGYAVTLERNGQVLFTPISINYRT and report
Found: 11

Lookup: Also E5 (designed binder, Del 1-8 10Fn3 clone; Flag tag of the radioactive-assay form not included) EVVAATPTSLLISWRHPHFPTRYYRITYGETGGNSPVQEFTVPLQPPTATISGLKPGVDYTITGYAVTDGQNGRLLNVPISINYRT , if possible.
Found: 10
